The following binders are listed with their measured pSTAT3 MFI, B cells, 1 nM (unstimulated 1193.5) values.
# SYSTEM TESTED: T1, IL10Rα/IL2Rγ receptor (human, UniProt Q13651 22-578; P31785 23-369)
# T1 sequence (looked up) 1: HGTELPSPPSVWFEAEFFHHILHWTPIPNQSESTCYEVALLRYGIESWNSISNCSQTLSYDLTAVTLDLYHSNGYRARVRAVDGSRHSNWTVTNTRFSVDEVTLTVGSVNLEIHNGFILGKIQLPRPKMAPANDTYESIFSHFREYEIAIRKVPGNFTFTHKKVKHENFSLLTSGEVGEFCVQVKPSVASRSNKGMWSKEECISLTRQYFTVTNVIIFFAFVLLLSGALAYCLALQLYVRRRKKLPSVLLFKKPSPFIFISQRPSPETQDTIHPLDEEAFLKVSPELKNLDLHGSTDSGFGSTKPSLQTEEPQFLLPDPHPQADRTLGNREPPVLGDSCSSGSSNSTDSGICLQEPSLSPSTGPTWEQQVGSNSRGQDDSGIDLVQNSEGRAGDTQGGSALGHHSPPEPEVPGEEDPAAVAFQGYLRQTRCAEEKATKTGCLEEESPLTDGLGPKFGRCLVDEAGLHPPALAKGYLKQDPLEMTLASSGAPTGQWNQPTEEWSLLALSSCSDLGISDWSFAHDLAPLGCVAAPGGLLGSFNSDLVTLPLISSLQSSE
# T1 sequence (looked up) 2: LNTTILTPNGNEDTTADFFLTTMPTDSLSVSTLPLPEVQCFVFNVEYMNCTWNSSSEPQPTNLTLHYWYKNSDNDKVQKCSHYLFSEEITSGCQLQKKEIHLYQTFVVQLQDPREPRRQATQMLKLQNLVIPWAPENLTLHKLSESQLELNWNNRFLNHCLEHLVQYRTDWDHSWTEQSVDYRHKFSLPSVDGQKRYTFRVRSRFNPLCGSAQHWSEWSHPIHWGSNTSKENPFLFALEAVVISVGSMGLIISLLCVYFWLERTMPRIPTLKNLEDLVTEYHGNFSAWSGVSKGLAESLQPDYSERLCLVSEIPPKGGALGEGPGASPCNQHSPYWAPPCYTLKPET
# ASSAY NAME: cell-based or functional assay
ATTRIBUTE MEASURED: pSTAT3 MFI, B cells, 1 nM (unstimulated 1193.5) (MFI)

INSERT INTO assay_data (binder, unit_tag, value_measured) VALUES
  ('DR465(DR240-DR231) (bispecific antibody) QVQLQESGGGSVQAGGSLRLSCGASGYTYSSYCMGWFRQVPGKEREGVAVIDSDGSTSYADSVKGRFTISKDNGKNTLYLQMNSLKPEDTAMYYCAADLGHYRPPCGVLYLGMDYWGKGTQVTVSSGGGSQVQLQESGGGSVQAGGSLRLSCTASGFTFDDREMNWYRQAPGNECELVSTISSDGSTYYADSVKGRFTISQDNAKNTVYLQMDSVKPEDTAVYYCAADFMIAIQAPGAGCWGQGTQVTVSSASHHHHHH', 'MFI', 1290),
  ('DR395(DR229-DR239) (bispecific antibody) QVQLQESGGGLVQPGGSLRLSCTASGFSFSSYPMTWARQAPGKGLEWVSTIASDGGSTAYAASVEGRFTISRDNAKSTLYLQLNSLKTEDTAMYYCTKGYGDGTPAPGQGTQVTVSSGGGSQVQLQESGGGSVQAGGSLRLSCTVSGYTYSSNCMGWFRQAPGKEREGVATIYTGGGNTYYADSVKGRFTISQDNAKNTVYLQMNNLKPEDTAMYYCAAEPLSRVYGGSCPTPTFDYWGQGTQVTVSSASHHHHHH', 'MFI', 1260),
  ('DR471(DR241-DR231) (bispecific antibody) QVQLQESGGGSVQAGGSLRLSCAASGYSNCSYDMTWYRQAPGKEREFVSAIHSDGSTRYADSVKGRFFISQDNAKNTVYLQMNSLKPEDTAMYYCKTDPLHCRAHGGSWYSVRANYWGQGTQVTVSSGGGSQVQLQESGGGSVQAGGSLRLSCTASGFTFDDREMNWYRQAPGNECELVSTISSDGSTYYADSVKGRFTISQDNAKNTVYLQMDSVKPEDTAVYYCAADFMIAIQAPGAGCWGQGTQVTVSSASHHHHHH', 'MFI', 1170),
  ('DR441(DR236-DR231) (bispecific antibody) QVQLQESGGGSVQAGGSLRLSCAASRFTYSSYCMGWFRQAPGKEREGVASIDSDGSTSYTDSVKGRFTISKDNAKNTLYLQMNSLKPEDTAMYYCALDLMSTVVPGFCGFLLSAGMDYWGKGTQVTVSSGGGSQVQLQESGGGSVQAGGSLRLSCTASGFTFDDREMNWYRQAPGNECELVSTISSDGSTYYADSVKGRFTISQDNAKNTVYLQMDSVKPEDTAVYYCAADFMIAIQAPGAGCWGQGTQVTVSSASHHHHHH', 'MFI', 1220);

Hello, the source for this data is patent US20250163162A1, in case you need it.
